- Tested on: Candida albicans (CAF-2)
- experiment_notes: Anti-fungal/anti-yeast activity: MIC50 (broth microdilution) and MFC
- Format: cell-based
Ratio MFC/MIC values for the compounds below.
Format: numeric value only, no unit, no commentary.

CC(=O)NNC(=O)Cn1sc2ccccc2c1=O [Compound I-7]	1
CN(Cc1ccccc1)C(=O)Cn1sc2ccccc2c1=O [Compound I-1]	2

(Q) For O=C(Cn1sc2ccccc2c1=O)Nc1ccccc1Oc1ccccc1 [Compound I-2] , what is its reported Ratio MFC/MIC?
(A) 1
